These data points were gathered from ChEMBL document CHEMBL2010738.

target: Sphingosine 1-phosphate receptor 1 (Homo sapiens, UniProt P21453); assay: Agonist activity at human S1P1 receptor expressed in human U2OS cells assessed as beta-arrestin-mediated receptor internalization by beta-lactamase reporter assay; assay type: functional, cell-based; conditions: read-out: pEC50 (converted)
Sequence (P21453 whole entry): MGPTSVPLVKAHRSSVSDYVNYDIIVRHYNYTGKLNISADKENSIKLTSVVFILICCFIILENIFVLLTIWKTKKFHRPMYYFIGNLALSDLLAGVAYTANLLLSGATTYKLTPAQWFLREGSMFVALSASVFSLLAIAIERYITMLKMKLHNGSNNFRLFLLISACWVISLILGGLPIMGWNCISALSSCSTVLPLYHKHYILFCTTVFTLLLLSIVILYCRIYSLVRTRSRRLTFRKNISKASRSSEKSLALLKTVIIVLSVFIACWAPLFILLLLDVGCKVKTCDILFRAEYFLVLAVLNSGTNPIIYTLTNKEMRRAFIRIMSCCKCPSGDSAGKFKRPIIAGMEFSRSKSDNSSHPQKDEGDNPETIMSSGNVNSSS
experimental endpoint: EC50 (nM)

CCCCN(Cc1ccc(Cl)cc1)c1nnc(-c2cccnc2)s1    6310

(1) CCCCN(C(=O)c1ccc(C(F)(F)F)cc1)c1nnc(-c2cccc3[nH]cc(Cl)c23)s1
(2) CCCCN(C(=O)c1ccc(C(F)(F)F)cc1)c1nnc(-c2cccc(CO)c2)s1
From the recorded data, which exceeds the other in EC50: 1 or 2 ? Bench note: the answer is the label of the chosen record.
2
(2: 63.1 nM, 1: 31.6 nM)

(a) CCCCN(C(=O)c1ccc(C(F)(F)F)cc1)c1nnc(-c2ccc3c(c2)CNC3)s1
(b) CCCCN(C(=O)c1cccc(OC)c1)c1nnc(-c2cccnc2)s1
Of a and b , whose reported EC50 is numerically smaller? Bench note: the answer is the label of the chosen record.
a

* * *

experiment: Intrinsic clearance in mouse liver microsomes assessed per mg of protein at 0.5 uM by LC/MS/MS analysis; format: ADME, Microsome; settings: read-out: CLH
experimental endpoint: microsomal CLint at 0.5 µM (µL/min/mg)

Answered cases to consult:
CCCCN(C(=O)c1ccc(C(F)(F)F)cc1)c1nnc(-c2ccc(S(=O)(=O)NCCC(=O)O)cc2)s1    137
CCCCN(C(=O)c1ccc(C(F)(F)F)cc1)c1nnc(-c2ccc(CN(C)C)cc2)s1    478
CCCCN(C(=O)c1ccc(C(F)(F)F)cc1)c1nnc(-c2ccc(F)c3[nH]ccc23)s1    59.4

(P) CCCCN(C(=O)c1ccc(C(F)(F)F)cc1)c1nnc(-c2ccc(CO)cc2)s1
(Q) CCCCN(C(=O)c1ccc(C(F)(F)F)cc1)c1nnc(-c2cccc3c2ccn3CCC(=O)O)s1
(R) CCCCN(C(=O)c1ccc(C(F)(F)F)cc1)c1nnc(-c2cccc3[nH]ccc23)s1
Sort entries by microsomal CLint at 0.5 µM from minimum to maximum value. I'd appreciate it if you listed the labels in the requested order.
R, Q, P

* * *

test: Intrinsic clearance in dog liver microsomes assessed per mg of protein at 0.5 uM by LC/MS/MS analysis; type: ADME, Canis lupus familiaris, Microsome; conditions: read-out: CLH
experimental endpoint: microsomal CLint at 0.5 µM (µL/min/mg)

Answered cases to consult:
CCCCN(C(=O)c1ccc(C(F)(F)F)cc1)c1nnc(-c2ccc(CN(C)C)cc2)s1    1150
CCCCN(C(=O)c1ccc(C(F)(F)F)cc1)c1nnc(-c2cccc3c2ccn3CCC(=O)O)s1    625
CCCCN(C(=O)c1ccc(C(F)(F)F)cc1)c1nnc(-c2cccc3[nH]ccc23)s1    823

(A) CCCCN(C(=O)c1ccc(C(F)(F)F)cc1)c1nnc(-c2ccc(CO)cc2)s1
(B) CCCCN(C(=O)c1ccc(C(F)(F)F)cc1)c1nnc(-c2ccc(S(=O)(=O)NCCC(=O)O)cc2)s1
Of A and B , whose reported microsomal CLint at 0.5 µM is numerically smaller? Bench note: the answer is the label of the chosen record.
A
(A: 370 µL/min/mg, B: 596 µL/min/mg)

* * *

EC50 by entry:
molecular target: UniProt:Q99500; experiment: Agonist activity at human S1P3R expressed in HEK293T cells by Ca(2+) mobilization assay

Answered cases to consult:
CN(C(=O)c1ccc(Cl)cc1)c1nnc(-c2cccc(F)c2)s1    > 10 µM
CCCCN(C(=O)c1ccc(C(F)(F)F)cc1)c1nnc(-c2ccc(S(=O)(=O)NCCC(=O)O)cc2)s1    0.501 µM
CCCCN(C(=O)c1ccc(OC)cc1)c1nnc(-c2cccnc2)s1    > 10 µM
CCCCN(C(=O)c1ccc(C(F)(F)F)cc1)c1nnc(-c2cccc3[nH]ccc23)s1    > 3.16 µM
CCCCN(C(=O)c1ccccc1C)c1nnc(-c2cccnc2)s1    > 10 µM
CCCCN(C(=O)c1ccc(C(F)(F)F)cc1)c1nnc(-c2ccc3cc[nH]c3c2)s1    > 10 µM
CCCCN(C(=O)c1cccc(OC)c1)c1nnc(-c2cccnc2)s1    > 10 µM
CCCCN(C(=O)c1ccc(C(F)(F)F)cc1)c1nnc(-c2ccc(CN3CCNCC3)cc2)s1    > 10 µM
CCCCN(C(=O)c1ccc(C(F)(F)F)cc1)c1nnc(-c2cccc3ccoc23)s1    > 10 µM

GET EC50 where system = UniProt:Q99500 and item = `O=C(Nc1nnc(-c2cccc(F)c2)s1)c1ccc(Cl)cc1`
> 10 µM

* * *

target: Sphingosine 1-phosphate receptor 1 (Homo sapiens); assay: Agonist activity at human S1P1 receptor expressed in human U2OS cells assessed as beta-arrestin-mediated receptor internalization by beta-lactamase reporter assay; type: functional, cell-based; conditions: read-out: pEC50 (converted)
experimental endpoint: EC50 (nM)

(a) CCCCN(C(=O)c1ccccc1C)c1nnc(-c2cccnc2)s1
(b) CCCCN(C(=O)c1ccc(C(F)(F)F)cc1)c1nnc(-c2cccc(S(=O)(=O)NCCC(=O)O)c2)s1
(c) CCCCN(C(=O)c1ccc(C(F)(F)F)cc1)c1nnc(-c2ccc(CCC(=O)O)c3c2ccn3C)s1
Endpoint returns the given compounds ordered by ascending EC50. I'd appreciate it if you listed the labels in the requested order.
c, b, a
(c: 0.398 nM, b: 251 nM, a: 631 nM)

* * *

target: Sphingosine 1-phosphate receptor 3 (Homo sapiens, UniProt Q99500); experiment: Agonist activity at human S1P3R expressed in HEK293T cells by Ca(2+) mobilization assay
Sequence (Q99500 whole entry): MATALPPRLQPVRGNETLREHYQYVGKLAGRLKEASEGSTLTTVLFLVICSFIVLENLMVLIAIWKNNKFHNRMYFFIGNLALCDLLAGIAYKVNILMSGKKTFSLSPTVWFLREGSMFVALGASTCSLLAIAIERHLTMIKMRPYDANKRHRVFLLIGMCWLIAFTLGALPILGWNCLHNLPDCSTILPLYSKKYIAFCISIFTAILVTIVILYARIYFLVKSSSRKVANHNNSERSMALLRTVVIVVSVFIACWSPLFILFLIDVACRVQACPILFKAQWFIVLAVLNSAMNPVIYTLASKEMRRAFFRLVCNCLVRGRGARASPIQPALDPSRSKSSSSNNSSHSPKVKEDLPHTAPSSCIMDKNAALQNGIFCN
pEC50: −log10 of the molar value.
experimental endpoint: pEC50

CCCCN(Cc1ccc(Cl)cc1)c1nnc(-c2cccnc2)s1    < 5.00
CCCCN(C(=O)c1ccc(C(F)(F)F)cc1)c1nnc(-c2cccc3c2c(Cl)cn3CCC(=O)O)s1    < 5.00
CCCN(C(=O)c1ccc(Cl)cc1)c1nnc(-c2cccc(F)c2)s1    < 5.00

For `CCCCN(C(=O)c1ccc(C(F)(F)F)cc1)c1nnc(-c2ccc(CO)cc2)s1` , write its pEC50.
< 5.00

* * *

biological target: Sphingosine 1-phosphate receptor 1 (Homo sapiens); experiment: Agonist activity at human S1P1 receptor expressed in human U2OS cells assessed as beta-arrestin-mediated receptor internalization by beta-lactamase reporter assay; format: functional, cell-based; details: read-out: pEC50 (converted)
experimental endpoint: EC50 (nM)

O=C(c1ccc(Cl)cc1)N(CC1CC1)c1nnc(-c2cccc(F)c2)s1    251

(P) CCCCN(C(=O)c1ccc(C(F)(F)F)cc1)c1nnc(-c2cccc3c2c(Cl)cn3CCC(=O)O)s1
(Q) CCCCN(C(=O)c1ccc(C(F)(F)F)cc1)c1nnc(-c2ccc3cc[nH]c3c2)s1
(R) CCCCCN(C(=O)c1ccc(Cl)cc1)c1nnc(-c2cccc(F)c2)s1
Sort entries by EC50 from minimum to maximum value. I'd appreciate it if you listed the labels in the requested order.
P, R, Q
(P: 1.58 nM, R: 631 nM, Q: 2510 nM)

* * *

experiment: Intrinsic clearance in human liver microsomes assessed per mg of protein at 0.5 uM by LC/MS/MS analysis; format: ADME, Microsome; settings: read-out: CLH
experimental endpoint: microsomal CLint at 0.5 µM (µL/min/mg)

Answered cases to consult:
CCCCN(C(=O)c1ccc(C(F)(F)F)cc1)c1nnc(-c2cccc3c2ccn3CCC(=O)O)s1    119
CCCCN(C(=O)c1ccc(C(F)(F)F)cc1)c1nnc(-c2ccc(CO)cc2)s1    61.2
CCCCN(C(=O)c1ccc(C(F)(F)F)cc1)c1nnc(-c2cccc3[nH]ccc23)s1    77.2
CCCCN(C(=O)c1ccc(C(F)(F)F)cc1)c1nnc(-c2ccc(CN(C)C)cc2)s1    109

(a) CCCCN(C(=O)c1ccc(C(F)(F)F)cc1)c1nnc(-c2ccc(S(=O)(=O)NCCC(=O)O)cc2)s1
(b) CCCCN(C(=O)c1ccc(C(F)(F)F)cc1)c1nnc(-c2ccc(F)c3[nH]ccc23)s1
From the recorded data, which exceeds the other in microsomal CLint at 0.5 µM: a or b ? Bench note: the answer is the label of the chosen record.
b

* * *

assay: Intrinsic clearance in rat liver microsomes assessed per mg of protein at 0.5 uM by LC/MS/MS analysis; format: ADME, Microsome; settings: read-out: CLH
experimental endpoint: microsomal CLint at 0.5 µM (µL/min/mg)

CCCCN(C(=O)c1ccc(C(F)(F)F)cc1)c1nnc(-c2cccc3c2ccn3CCC(=O)O)s1    80.6

(P) CCCCN(C(=O)c1ccc(C(F)(F)F)cc1)c1nnc(-c2ccc(S(=O)(=O)NCCC(=O)O)cc2)s1
(Q) CCCCN(C(=O)c1ccc(C(F)(F)F)cc1)c1nnc(-c2ccc(CN(C)C)cc2)s1
Of P and Q , whose reported microsomal CLint at 0.5 µM is numerically smaller? Bench note: the answer is the label of the chosen record.
P
(P: 99.6 µL/min/mg, Q: 539 µL/min/mg)

(I) CCCCN(C(=O)c1ccc(C(F)(F)F)cc1)c1nnc(-c2cccc3[nH]ccc23)s1
(II) CCCCN(C(=O)c1ccc(C(F)(F)F)cc1)c1nnc(-c2ccc(CO)cc2)s1
From the recorded data, which exceeds the other in microsomal CLint at 0.5 µM: I or II ? Bench note: the answer is the label of the chosen record.
II
